ASSAYED SYSTEM: CYP2D6 (Homo sapiens)
Sequence (P10635 whole entry): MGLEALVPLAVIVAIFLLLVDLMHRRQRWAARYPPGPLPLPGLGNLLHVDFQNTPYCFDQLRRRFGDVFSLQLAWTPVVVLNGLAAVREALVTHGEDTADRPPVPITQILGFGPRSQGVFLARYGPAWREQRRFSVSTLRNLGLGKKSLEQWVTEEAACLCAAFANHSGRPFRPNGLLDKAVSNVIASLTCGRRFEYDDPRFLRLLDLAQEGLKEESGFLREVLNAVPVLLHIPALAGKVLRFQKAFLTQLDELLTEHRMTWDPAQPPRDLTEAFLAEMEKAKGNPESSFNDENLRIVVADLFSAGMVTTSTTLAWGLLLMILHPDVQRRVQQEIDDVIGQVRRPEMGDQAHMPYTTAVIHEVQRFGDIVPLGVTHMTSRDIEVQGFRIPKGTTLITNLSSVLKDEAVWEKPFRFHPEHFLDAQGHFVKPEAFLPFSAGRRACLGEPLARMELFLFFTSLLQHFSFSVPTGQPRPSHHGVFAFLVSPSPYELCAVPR
METRIC NAME: IC50

INSERT INTO assay_data (compound, assayed_system, assay_result) VALUES
  ('CC(C)n1nccc1-c1ncccc1COc1cccc(O)c1C=O [GBT440, reference compound]', 'CYP2D6 (Homo sapiens)', '> 30 µM'),
  ('[2H]C([2H])(Oc1cc(F)cc(O)c1C=O)c1cccnc1-c1ccnn1C(C)C [Example 27b]', 'CYP2D6 (Homo sapiens)', '> 30 µM'),
  ('[2H]C([2H])(Oc1cccc(O)c1C=O)c1cccnc1-n1ccnc1C(C)C [Example 29e]', 'CYP2D6 (Homo sapiens)', '> 50 µM'),
  ('[2H]C([2H])(Oc1cccc(O)c1C=O)c1cncnc1-c1ccnn1C(C)C [Example 38]', 'CYP2D6 (Homo sapiens)', '> 30 µM');
